Data origin, for the record: patent US9162979B2

Structures can show the parent of a compound that is named as a salt.
Below, each entry is listed with its recorded melting point.

Cc1c(CC(=O)OCCO)cc(-c2ccc(S(C)(=O)=O)cc2)n1-c1ccc(F)cc1 = 129 to 131 °C
Cc1c(CC(=O)OCCCCO[N+](=O)[O-])cc(-c2ccc(S(C)(=O)=O)cc2)n1-c1ccc(F)cc1 = 102 to 104 °C
Cc1c(CCOCCCO[N+](=O)[O-])cc(-c2ccc(S(C)(=O)=O)cc2)n1-c1ccc(F)cc1 (as salt: nitrate) = 114 to 116 °C
Cc1c(CC(=O)OCCCO[N+](=O)[O-])cc(-c2ccc(S(C)(=O)=O)cc2)n1-c1ccccc1 = 116 to 118 °C

Attention now turns to another entry.
Please look up its melting point: Cc1c(CCOCCO)cc(-c2ccc(S(C)(=O)=O)cc2)n1-c1ccc(F)c(F)c1
138 to 140 °C
